Listed binders paired with reported koff
assayed-system: T1, Helicobacter pylori Hsp60 with a 6 × His tag on its C terminus (Helicobacter pylori 26695, UniProt P42383 1-546)
T1 construct: also called recombinant Hsp60; source: E. coli BL21(DE3), purified (Ni-NTA, Sephadex G-75 gel filtration); not shown: His6, C-terminal, kept
T1 sequence (P42383 whole entry): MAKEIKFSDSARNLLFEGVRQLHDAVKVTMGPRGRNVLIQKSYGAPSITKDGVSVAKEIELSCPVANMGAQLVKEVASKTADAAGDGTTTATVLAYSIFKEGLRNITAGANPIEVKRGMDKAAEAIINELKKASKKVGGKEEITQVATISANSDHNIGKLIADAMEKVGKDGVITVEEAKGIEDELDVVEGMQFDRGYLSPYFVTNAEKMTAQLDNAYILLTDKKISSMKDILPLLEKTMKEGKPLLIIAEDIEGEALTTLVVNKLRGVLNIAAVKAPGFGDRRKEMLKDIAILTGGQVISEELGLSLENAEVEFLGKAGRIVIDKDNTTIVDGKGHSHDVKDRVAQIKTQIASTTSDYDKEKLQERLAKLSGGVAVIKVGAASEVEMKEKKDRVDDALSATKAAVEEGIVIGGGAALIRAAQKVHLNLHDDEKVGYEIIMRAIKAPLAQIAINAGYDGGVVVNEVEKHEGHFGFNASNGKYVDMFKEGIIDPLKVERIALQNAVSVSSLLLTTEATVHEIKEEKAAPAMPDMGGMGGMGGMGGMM
experimental-details: SPR; BIAcore T100; Hsp60 immobilized on CM5 chip (~600 RU); UreA-His or mutants as analytes (0.36-2.19 μM); PBS pH 7.4, 30 μl/min, 25°C; kinetic analysis, global fit to 1:1 Langmuir model
conditions-used: both partners purified
Reply with just the number (in s⁻¹).

{"columns": ["binder", "numeric-readout"],
 "data": [
  ["UreA-His K26A (natural protein, source: E. coli BL21(DE3), purified as wild-type UreA-His; not shown: His tag, C-terminal, kept) MKLTPKELDKLMLHYAGELAKKRKEAGIKLNYVEAVALISAHIMEEARAGKKTAAELMQEGRTLLKPDDVMDGVASMIHEVGIEAMFPDGTKLVTVHTPIEANGKLVPGELFLKNEDITINEGKKAVSVKVKNVGDRPVQIGSHFHFFEVNRCLDFDREKTFGKRLDIASGTAVRFEPGEEKSVELIDIGGNRRIFGFNALVDRQADNESKKIALHRAKERGFHGAKSDDNYVKTIKE", 0.0122],
  ["UreA-His K22A (natural protein, source: E. coli BL21(DE3), purified as wild-type UreA-His; not shown: His tag, C-terminal, kept) MKLTPKELDKLMLHYAGELAKARKEKGIKLNYVEAVALISAHIMEEARAGKKTAAELMQEGRTLLKPDDVMDGVASMIHEVGIEAMFPDGTKLVTVHTPIEANGKLVPGELFLKNEDITINEGKKAVSVKVKNVGDRPVQIGSHFHFFEVNRCLDFDREKTFGKRLDIASGTAVRFEPGEEKSVELIDIGGNRRIFGFNALVDRQADNESKKIALHRAKERGFHGAKSDDNYVKTIKE", 0.00179]
]}

Looking up UreA-His E25A (natural protein, source: E. coli BL21(DE3), purified as wild-type UreA-His; not shown: His tag, C-terminal, kept) MKLTPKELDKLMLHYAGELAKKRKAKGIKLNYVEAVALISAHIMEEARAGKKTAAELMQEGRTLLKPDDVMDGVASMIHEVGIEAMFPDGTKLVTVHTPIEANGKLVPGELFLKNEDITINEGKKAVSVKVKNVGDRPVQIGSHFHFFEVNRCLDFDREKTFGKRLDIASGTAVRFEPGEEKSVELIDIGGNRRIFGFNALVDRQADNESKKIALHRAKERGFHGAKSDDNYVKTIKE , I see its koff listed as 0.00567
